As a worked illustration, we turn to log10 of Ki data collected for 5-hydroxytryptamine receptor 1B (Homo sapiens).
Structures can show the parent of a compound that is named as a salt.
value-type: log10 of Ki (log10 of the value in nM)

{"compound": "O=c1ccc2ccc(OCCCCN3CCN(c4cccc5sccc45)CC3)cc2[nH]1", "log10 of Ki": 1.63}
{"compound": "Cc1nn(C)c(C)c1-c1cccc2c1CC[C@H](N(C)C)C2", "log10 of Ki": 1.01}
{"compound": "CN1C[C@H](C(=O)N[C@]2(C)O[C@@]3(O)[C@@H]4CCCN4C(=O)[C@H](Cc4ccccc4)N3C2=O)C[C@@H]2c3cccc4[nH]cc(c34)C[C@H]21 [DIHYDROERGOTAMINE MESYLATE]", "log10 of Ki": 2.03}
{"compound": "NCCc1cn(S(=O)(=O)c2c(Cl)nc3sccn23)c2ccccc12", "log10 of Ki": 2.75}
{"compound": "N#Cc1c(N)nc(SCC(N)=O)c(C#N)c1-c1ccc(OCC2CC2)cc1", "log10 of Ki": 3.82}
{"compound": "CCOC(=O)c1c(C)[nH]c2ccc3c(c12)CN1CCc2cc(OC)ccc2C1O3 (stereo unspecified)", "log10 of Ki": 3.33}
{"compound": "COc1ccccc1N1CCN(CCCCNC(=O)c2ccc3ccccc3c2)CC1", "log10 of Ki": 2.22}
{"compound": "CN1CCCC(n2nc(Cc3ccc(Cl)cc3)c3ccccc3c2=O)CC1 (stereo unspecified) [AZELASTINE HYDROCHLORIDE]", "log10 of Ki": 3.63}
{"compound": "NCCc1c[nH]c2ccc(C(N)=O)cc12", "log10 of Ki": 1.05}
{"compound": "CN(C)C(=O)N[C@H]1CC[C@H](CCN2CCN(c3cccc(Cl)c3Cl)CC2)CC1 [CARIPRAZINE HYDROCHLORIDE]", "log10 of Ki": 2.11}
{"compound": "Cc1nc2sccn2c(=O)c1CCN1CCC(=C(c2ccc(F)cc2)c2ccc(F)cc2)CC1", "log10 of Ki": 2.45}
{"compound": "N#Cc1ccc2[nH]cc(CCCCN3CCN(c4ccc5oc(C(N)=O)cc5c4)CC3)c2c1 [VILAZODONE HYDROCHLORIDE]", "log10 of Ki": 3.09}
{"compound": "Clc1cccc(COc2cncc(N3CCNCC3)n2)c1", "log10 of Ki": 3.22}
{"compound": "CCc1nn(CCCN2CCN(c3cccc(Cl)c3)CC2)c(=O)n1CCOc1ccccc1 [NEFAZODONE HYDROCHLORIDE]", "log10 of Ki": 2.42}
{"compound": "CN1CCC(=C2c3ccccc3CC(=O)c3sccc32)CC1 [KETOTIFEN FUMARATE]", "log10 of Ki": 3.24}
{"compound": "O=C(O)c1cc(-c2ccc(C3CCNCC3)cc2)c2ccc(-c3ccc(C(F)(F)F)cc3)cc2c1", "log10 of Ki": 3.06}

* * *

target: Sigma non-opioid intracellular receptor 1 (Homo sapiens, UniProt Q99720); experiment: PDSP Secondary Binding target: SIGMAR1 - Compounds are tested at 10 uM concentration, plate are incubated at room temperature in the dark for 90 minutes. Reaction are stopped by vacuum filtration onto 0.3% polyethyleneimine soaked filter mats using Filtermate harvester. Scintillation cocktail is then melted onto microwave-dried filters on a hot plate and the radio activity is counted in Microbia counter.
Sequence (Q99720 whole entry): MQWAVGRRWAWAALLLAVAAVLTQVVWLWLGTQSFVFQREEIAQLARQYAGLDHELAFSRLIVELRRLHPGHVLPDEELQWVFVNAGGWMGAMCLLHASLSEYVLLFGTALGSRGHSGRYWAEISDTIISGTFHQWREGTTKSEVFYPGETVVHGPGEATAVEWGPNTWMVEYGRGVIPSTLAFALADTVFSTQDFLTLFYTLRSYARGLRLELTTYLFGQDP
Structures can show the parent of a compound that is named as a salt.
Threshold 500 nM: Ki strictly smaller gives fulfilled, otherwise not fulfilled.

{"molecule": "CCC(=O)NCC[C@@H]1CCc2ccc3c(c21)CCO3", "system-name": "Sigma non-opioid intracellular receptor 1 (Homo sapiens, UniProt Q99720)", "classification": "not fulfilled"}
{"molecule": "COC1CCN(c2cccc(-c3cc(NC(C)=O)nc(-n4nc(C)cc4C)n3)n2)CC1", "system-name": "Sigma non-opioid intracellular receptor 1 (Homo sapiens, UniProt Q99720)", "classification": "fulfilled"}
{"molecule": "Cc1cc(NC(=O)Nc2ccc(N(C)C)cc2)c2cc(F)cc(F)c2n1", "system-name": "Sigma non-opioid intracellular receptor 1 (Homo sapiens, UniProt Q99720)", "classification": "not fulfilled"}
{"molecule": "Cc1ccc(O)c([C@H](CCN(C(C)C)C(C)C)c2ccccc2)c1 [TOLTERODINE TARTRATE]", "system-name": "Sigma non-opioid intracellular receptor 1 (Homo sapiens, UniProt Q99720)", "classification": "fulfilled"}
{"molecule": "CN1C[C@H](C(=O)N[C@]2(C)O[C@@]3(O)[C@@H]4CCCN4C(=O)[C@H](Cc4ccccc4)N3C2=O)C[C@@H]2c3cccc4[nH]cc(c34)C[C@H]21 [DIHYDROERGOTAMINE MESYLATE]", "system-name": "Sigma non-opioid intracellular receptor 1 (Homo sapiens, UniProt Q99720)", "classification": "not fulfilled"}
{"molecule": "C=CCN1C[C@H](C)N([C@H](c2ccc(C(=O)N(CC)CC)cc2)c2cccc(O)c2)C[C@H]1C", "system-name": "Sigma non-opioid intracellular receptor 1 (Homo sapiens, UniProt Q99720)", "classification": "fulfilled"}
{"molecule": "Cc1cn2cc(CC(=O)N3CCC4(CC3)CN(Cc3ccc(-n5nccn5)cc3Cl)C4)nc2s1", "system-name": "Sigma non-opioid intracellular receptor 1 (Homo sapiens, UniProt Q99720)", "classification": "not fulfilled"}
{"molecule": "CN(C)C(=O)C(CCN1CCC(O)(c2ccc(Cl)cc2)CC1)(c1ccccc1)c1ccccc1 [LOPERAMIDE HYDROCHLORIDE]", "system-name": "Sigma non-opioid intracellular receptor 1 (Homo sapiens, UniProt Q99720)", "classification": "fulfilled"}

* * *

target: Alpha-2A adrenergic receptor (Homo sapiens, UniProt P08913); experiment: PDSP Secondary Binding target: ADRA2A - Compounds are tested at 10 uM concentration, plate are incubated at room temperature in the dark for 90 minutes. Reaction are stopped by vacuum filtration onto 0.3% polyethyleneimine soaked filter mats using Filtermate harvester. Scintillation cocktail is then melted onto microwave-dried filters on a hot plate and the radio activity is counted in Microbia counter.
Sequence (P08913 whole entry): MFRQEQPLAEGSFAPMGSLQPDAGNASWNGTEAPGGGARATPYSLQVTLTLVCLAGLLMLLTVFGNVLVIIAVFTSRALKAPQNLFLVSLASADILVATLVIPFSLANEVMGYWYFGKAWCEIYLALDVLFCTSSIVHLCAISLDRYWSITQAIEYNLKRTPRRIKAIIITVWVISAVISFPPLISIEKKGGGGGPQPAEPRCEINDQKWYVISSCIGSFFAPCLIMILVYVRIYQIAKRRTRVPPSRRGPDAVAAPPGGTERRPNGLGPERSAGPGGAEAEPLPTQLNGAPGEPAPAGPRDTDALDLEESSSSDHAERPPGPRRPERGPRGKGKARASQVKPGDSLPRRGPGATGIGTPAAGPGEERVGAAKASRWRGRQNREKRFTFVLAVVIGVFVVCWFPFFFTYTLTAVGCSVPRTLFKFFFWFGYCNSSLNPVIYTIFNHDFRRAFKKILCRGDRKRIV
Structures can show the parent of a compound that is named as a salt.
Note that class boundaries on Ki are 1: < 700 nM; 2: ≥ 700 nM and < 2000 nM; 3: ≥ 2000 nM

{"compound": "NCCc1cn(S(=O)(=O)c2c(Cl)nc3sccn23)c2ccccc12", "system-name": "Alpha-2A adrenergic receptor (Homo sapiens, UniProt P08913)", "classification": 1}
{"compound": "CN1CCCC(n2nc(Cc3ccc(Cl)cc3)c3ccccc3c2=O)CC1 (stereo not drawn) [AZELASTINE HYDROCHLORIDE]", "system-name": "Alpha-2A adrenergic receptor (Homo sapiens, UniProt P08913)", "classification": 2}
{"compound": "Cc1ccc2c(c1)c1c(n2CCc2ccc(C)nc2)CCN(C)C1 [LATREPIRDINE]", "system-name": "Alpha-2A adrenergic receptor (Homo sapiens, UniProt P08913)", "classification": 2}
{"compound": "N#Cc1ccc2[nH]cc(CCCCN3CCN(c4ccc5oc(C(N)=O)cc5c4)CC3)c2c1 [VILAZODONE HYDROCHLORIDE]", "system-name": "Alpha-2A adrenergic receptor (Homo sapiens, UniProt P08913)", "classification": 3}
{"compound": "Cc1c(F)cccc1NC(=O)Nc1ccc(Cl)c(S(=O)(=O)[C@H]2CCCNC2)c1O", "system-name": "Alpha-2A adrenergic receptor (Homo sapiens, UniProt P08913)", "classification": 3}
{"compound": "COc1ccc(NC(=O)c2ccc(-c3ccc(-c4noc(C)n4)cc3C)cc2)cc1OCCN(C)C", "system-name": "Alpha-2A adrenergic receptor (Homo sapiens, UniProt P08913)", "classification": 1}
{"compound": "CCC[C@H](Oc1cc(C)c(-n2cc(C(F)(F)F)cn2)c(C)c1)c1ccc(C(=O)NCCC(=O)O)cc1", "system-name": "Alpha-2A adrenergic receptor (Homo sapiens, UniProt P08913)", "classification": 3}
{"compound": "Cc1cc([C@@H](C)Nc2cccc(-c3cc(C)c(C(=O)N[C@@H](C)C(=O)O)c(C)c3)c2)ccc1Cl", "system-name": "Alpha-2A adrenergic receptor (Homo sapiens, UniProt P08913)", "classification": 3}
{"compound": "Cc1cc(NC(=O)NCCN2CCC(O)(Cc3ccccc3)CC2)c2ccccc2n1", "system-name": "Alpha-2A adrenergic receptor (Homo sapiens, UniProt P08913)", "classification": 2}
{"compound": "NCCc1c[nH]c2ccc(C(N)=O)cc12", "system-name": "Alpha-2A adrenergic receptor (Homo sapiens, UniProt P08913)", "classification": 3}
{"compound": "CCCCCCCCCCCCCCCCOC[C@H](COP(=O)([O-])OCC[N+](C)(C)C)OC(C)=O", "system-name": "Alpha-2A adrenergic receptor (Homo sapiens, UniProt P08913)", "classification": 3}
{"compound": "CN1CCC(=C2c3ccccc3CC(=O)c3sccc32)CC1 [KETOTIFEN FUMARATE]", "system-name": "Alpha-2A adrenergic receptor (Homo sapiens, UniProt P08913)", "classification": 2}
{"compound": "Cc1nn(C)c(C)c1-c1cccc2c1CC[C@H](N(C)C)C2", "system-name": "Alpha-2A adrenergic receptor (Homo sapiens, UniProt P08913)", "classification": 1}
{"compound": "Cc1nc(-c2ccc(-c3ccc(C(=O)N4CCc5cc6c(cc54)C4(CCN(C)CC4)CO6)cc3)c(C)c2)no1", "system-name": "Alpha-2A adrenergic receptor (Homo sapiens, UniProt P08913)", "classification": 3}
{"compound": "OC1(c2ccc(Cl)cc2)CCN(Cc2c[nH]c3ccccc23)CC1", "system-name": "Alpha-2A adrenergic receptor (Homo sapiens, UniProt P08913)", "classification": 3}
{"compound": "Cc1c(P(=S)(c2ccccc2)c2ccccc2)n2ccccc2[n+]1C/C=C/c1ccccc1", "system-name": "Alpha-2A adrenergic receptor (Homo sapiens, UniProt P08913)", "classification": 1}
{"compound": "CCCCN1CCC(COC(=O)c2cc(Cl)c(N)c3c2OCCO3)CC1", "system-name": "Alpha-2A adrenergic receptor (Homo sapiens, UniProt P08913)", "classification": 2}
{"compound": "CN(C)C(=O)N[C@H]1CC[C@H](CCN2CCN(c3cccc(Cl)c3Cl)CC2)CC1 [CARIPRAZINE HYDROCHLORIDE]", "system-name": "Alpha-2A adrenergic receptor (Homo sapiens, UniProt P08913)", "classification": 2}
